Just for reference, patent US20210403579A1 is where these values come from.

Biological target: T1, Human ST2 (human, UniProt Q01638 19-328, limits assumed)
T1 construct: also called human ST2 protein; Interleukin 1 receptor-like 1
T1 sequence (looked up): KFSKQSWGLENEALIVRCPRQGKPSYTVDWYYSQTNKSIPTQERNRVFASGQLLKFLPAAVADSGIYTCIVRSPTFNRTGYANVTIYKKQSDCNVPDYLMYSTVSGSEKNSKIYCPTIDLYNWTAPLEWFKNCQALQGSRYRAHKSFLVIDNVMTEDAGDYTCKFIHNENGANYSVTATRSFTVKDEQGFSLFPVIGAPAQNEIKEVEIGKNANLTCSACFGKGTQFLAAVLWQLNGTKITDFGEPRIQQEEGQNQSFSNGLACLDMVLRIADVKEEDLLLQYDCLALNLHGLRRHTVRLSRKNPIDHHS
Assay: SPR (Carterra), antibody immobilized, ST2 analyte
Reported Property: koff (s⁻¹)
Express it in s⁻¹; write the number only.

- Human ST2 IgG1 Antibody 27 (antibody, V domains shown, IgG1; also called ST2 Antibody 27) VH: QVQLVQSGAEVKKPGASVKVSCKASGYTFTGQYMHWVRQAPGQGLEWMGIINPSGGSTSYAQKFQGRVTMTRDTSTSTVYMELSSLRSEDTAVYYCAGSYYPYYYYGMDVWGQGTTVTVSS VL: DIQMTQSPSSLSASVGDRVTITCRASQNIGYFLHWYQQKPGKAPKLLIYAASSLQSGVPSRFSGSGSGTDFTLTISSLQPEDFATYYCQQSYSPPLTFGGGTKVEIKR: 0.048

Now look at this entry.
Item Human ST2 IgG1 Antibody 96 (antibody, V domains shown, IgG1; also called ST2 Antibody 96) VH: QVQLVQSGAEVKKPGSSVKVSCKASGFSFSTYGVAWVRQAPGQGLEWMGGFVPIIGSANYAQKFQGRVTITADESTSTAYMELSSLRSEDTAVYYCARDYGGNLDYWGQGTLVTVSS VL: DIVMTQSPLSLPVTPGEPASISCRSSQSLLHSNGYNYLDWYLQKPGQSPQLLIYAASSLQSGVPDRFSGSGSGTDFTLKISRVEAEDVGVYYCMQGAHWPPTFGQGTKVEIKR has what recorded koff?
0.097
